# METHOD: solubility and pH stability of OK-101 in sodium phosphate buffer
# Assay type: physicochemical
# EXPERIMENTAL CONTEXT: three batches of 50 mM sodium phosphate buffer, read-out: concentration of OK-101 observed (solubility)
Square brackets hold non-standard residues; d marks the D form. Peptide text beside a SMILES is read from it. * marks the point of attachment. PEG8 = NCCOCCOCCOCCOCCOCCOCCOCCOCCC(=O)O; Palmitoyl = CCCCCCCCCCCCCCCC(=O)*; Tic = O=C(O)[C@@H]1Cc2ccccc2CN1
OBSERVABLE: solubility

Challenge: Tell me measured solubility for CCCCCCCCCCCCCCCC(=O)NCCOCCOCCOCCOCCOCCOCCOCCOCCC(=O)NCC(=O)NCC(=O)N[C@H](Cc1ccc(O)cc1)C(=O)N[C@@H](Cc1ccccc1)C(=O)N[C@@H](CC(C)C)C(=O)N1CCC[C@H]1C(=O)N[C@H](CO)C(=O)N[C@@H](CCC(N)=O)C(=O)N[C@@H](Cc1ccccc1)C(=O)N[C@H](C)C(=O)N1Cc2ccccc2C[C@H]1C(=O)N[C@@H](CO)C(=O)O [OK-101] ({Palmitoyl-PEG8}-GG[dY]FLP[dS]QF[dA][Tic]S-OH) please.
Response given: > 25 mg/mL

###

# METHOD: solubility and pH stability of OK-101 in sodium phosphate buffer
# Type: physicochemical
# EXPERIMENTAL CONTEXT: three batches of 100 mM sodium phosphate buffer, read-out: concentration of OK-101 observed (solubility)
Square brackets hold non-standard residues; d marks the D form. Peptide text beside a SMILES is read from it. * marks the point of attachment. PEG8 = NCCOCCOCCOCCOCCOCCOCCOCCOCCC(=O)O; Palmitoyl = CCCCCCCCCCCCCCCC(=O)*; Tic = O=C(O)[C@@H]1Cc2ccccc2CN1
OBSERVABLE: solubility

Challenge: Tell me measured solubility for CCCCCCCCCCCCCCCC(=O)NCCOCCOCCOCCOCCOCCOCCOCCOCCC(=O)NCC(=O)NCC(=O)N[C@H](Cc1ccc(O)cc1)C(=O)N[C@@H](Cc1ccccc1)C(=O)N[C@@H](CC(C)C)C(=O)N1CCC[C@H]1C(=O)N[C@H](CO)C(=O)N[C@@H](CCC(N)=O)C(=O)N[C@@H](Cc1ccccc1)C(=O)N[C@H](C)C(=O)N1Cc2ccccc2C[C@H]1C(=O)N[C@@H](CO)C(=O)O [OK-101] ({Palmitoyl-PEG8}-GG[dY]FLP[dS]QF[dA][Tic]S-OH) please.
Response given: > 30 mg/mL
